- Tested on: Rat fibroblasts (CREF)
- testName: Peg3 promoter luciferase inhibitors, potency, dose response, cell-based, HeLa, CREF/GAPDH counter-screen panel (AID 624167)
- reportedConditions: CREF/GAPDH counter-screens, run 1, dose range 1, individual replicate IC50 per panel
# pIC50 listing for each entry below
// scale note: pIC50 = -log10(conc_M); give the bare number

Answered examples (3):
O=C(Cn1ncc(Cl)c(Cl)c1=O)N1CCc2ccccc21 ... 4.73
COc1ccc(N(C(=O)CCl)C(C(=O)NC2CCCCC2)c2cccnc2)cc1 (stereo not drawn) ... 5.55
C=C1CC(COc2ccc3c(C)c(Cl)c(=O)oc3c2)(c2ccccc2)OC1=O (stereo not drawn) ... 5.03

Kindly state the measured pIC50 obtained for O=C(Nc1ccc([N+](=O)[O-])cc1)C(=O)Nc1cccc(C(=O)O)c1 with Rat fibroblasts (CREF).
5.63

Kindly state the measured pIC50 obtained for O=C(CNc1ccccc1)N/N=C/c1c(O)ccc2ccccc12 with Rat fibroblasts (CREF).
4.24

Kindly state the measured pIC50 obtained for COC(=O)Cc1[nH]n(-c2nc3ccccc3s2)c(=O)c1C(C)=Nc1ccc(C)cc1 with Rat fibroblasts (CREF).
4.60

====

- testName: Peg3 promoter luciferase inhibitors, potency, dose response, cell-based, HeLa, CREF/GAPDH counter-screen panel (AID 624167)
- reportedConditions: CREF/GAPDH counter-screens; GAPDH; mean of runs
The source made the active and inactive calls.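 How the source made its calls: active means mean IC50 for reducing PEG3 promoter reporter signal at or below a set limit, with IC50 above the limit in both counter screens; inactive means the rest, including counter screen hits.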
assayMetric: IC50

Answered examples (6):
CCCCCCCNC(=O)C1(CC2CC(c3cccc(Br)c3)=NO2)CCNCC1 (stereo not given) ... 15.4 µM
COc1cc(CNCCCN2CCOCC2)cc(Br)c1OCc1ccc(Cl)cc1 ... 12.3 µM
O=C(COc1ccc2c(c1)CCC2)Nc1ccccn1 ... 5.82 µM
O=C(NNC(=O)c1cccnc1SCc1cccc([N+](=O)[O-])c1)c1ccccn1 ... > 100 µM (inactive)
COc1cccc(OC)c1C(=O)Nc1cc(C)nn1-c1nc2ccccc2[nH]1 ... > 100 µM (inactive)
CN(C(=O)COC(=O)/C=C/c1cccc([N+](=O)[O-])c1)C1CCS(=O)(=O)C1 (stereo not given) ... > 100 µM (inactive)

Please look at the following molecule next.
# input molecule: CC(/C=C/c1ccccc1)=N/NC(=O)c1cc([N+](=O)[O-])cc([N+](=O)[O-])c1 ; wanted: its IC50
inactive

====

- Tested on: Rat fibroblasts (CREF)
- testName: Peg3 promoter luciferase inhibitors, potency, dose response, cell-based, HeLa, CREF/GAPDH counter-screen panel (AID 624167)
- reportedConditions: CREF/GAPDH counter-screens, mean of runs
Active and inactive are the calls of the source.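 The calls were made as follows: active = mean IC50 for reducing PEG3 promoter reporter signal at or below a set limit, with IC50 above the limit in both counter screens; inactive = the rest, including counter screen hits.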
Select the correct class. Options are True = active, False = inactive and nothing else.

Answered examples (5):
CN(C)CC1CCC/C(=C\c2ccc(OC(=O)c3ccc(Cl)cc3)cc2)C1=O (stereo not drawn) ... False
COCCCNC(=O)c1ccc(Cn2c(=O)c3ccccc3n(Cc3ccccc3C#N)c2=O)cc1 ... False
COc1cccc(NC(=O)c2nc(S(C)(=O)=O)ncc2Cl)c1 ... True
c1cc2c(cc1C1=NNC(=NC3CC3)SC1)OCCO2 ... True
CC1CCCN(c2ncnc3c2cnn3-c2ccc(Cl)cc2)C1 (stereo not drawn) ... True

Outcome logged for O=C(/C=C\Nc1ccc2c(c1)OCO2)c1ccccn1 in this assay:
True

Outcome logged for O=C(Nc1ccccn1)c1cc2ccccc2o1 in this assay:
True

Outcome logged for O=C(/C=C/Nc1ccccc1Br)c1ccccn1 in this assay:
True

Outcome logged for O=C(c1ccc(Cl)cc1)N1CCCCC(Sc2nnc(-c3ccc4c(c3)OCO4)o2)C1=O (stereo not drawn) in this assay:
True

Outcome logged for COc1cccc2nc3c(C(=O)NCCN(C)C)cccc3cc12 in this assay:
True

Outcome logged for COCCn1c(C)cc(C(=O)CSc2nnc(C)s2)c1C in this assay:
True

Outcome logged for CN(C)c1ccc(/C=C/c2ccc3ccccc3n2)cc1 in this assay:
True

====

- Test system: PEG-3
- testName: Peg3 promoter luciferase inhibitors, potency, dose response, cell-based, HeLa, CREF/GAPDH counter-screen panel (AID 624167)
- reportedConditions: HeLa PEG-Prom luciferase reporter, overnight, CREF/GAPDH counter-screens, run 1, dose range 1, individual replicate IC50 per panel
rule met if IC50 is below 10 µM. rule not met if not; exact matches included in rule not met.

Answered examples (6):
O=C1/C(=C\c2cccc(O)c2O)SC(=S)N1Cc1ccccc1 ... rule not met
CCOC(=O)c1c(NC(C)=O)sc2c(OCC(O)CN(CC)CC)c(Br)ccc12 (stereo not given) ... rule not met
CCC(c1nnnn1-c1ccc2c(c1)OCCO2)N1CCC(n2c(=O)[nH]c3ccccc32)CC1 (stereo not given) ... rule met
CN=c1scc(-c2cccs2)n1/N=C/c1ccccc1O ... rule met
Cc1cc(C(=O)Nc2cccc(C(=O)O)c2)oc1C ... rule met
O=C(Nc1ccc(-c2cn3ccsc3n2)cc1)c1ccc(F)c(S(=O)(=O)N2CCOCC2)c1 ... rule not met

Please let me know if O=C(NC1CCCCC1)C(c1cccnc1)N(C(=O)CCl)c1cccc(Cl)c1 (stereo not given) shows IC50 below 10 µM.
rule not met

Please let me know if Cc1ccc(-c2cn3cc(C)ccc3n2)cc1 shows IC50 below 10 µM.
rule met

Please let me know if N=c1n(CCN2CCCC2)c2ccccc2n1CC(O)c1ccc(Cl)c(Cl)c1 (stereo not given) shows IC50 below 10 µM.
rule not met

====

- Tested on: Rat fibroblasts (CREF)
- testName: Peg3 promoter luciferase inhibitors, potency, dose response, cell-based, HeLa, CREF/GAPDH counter-screen panel (AID 624167)
- reportedConditions: CREF/GAPDH counter-screens, mean of runs
Activity calls are given as the source filed them.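 The calls were made as follows: active = mean IC50 for reducing PEG3 promoter reporter signal at or below a set limit, with IC50 above the limit in both counter screens; inactive = the rest, including counter screen hits.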
Select the correct class. Options are active, inactive and nothing else.

COc1cc(SC)ccc1C(=O)Nc1nc2ccccc2[nH]1 ... active
Cc1ccc2nc(NC(=O)c3ccccn3)sc2c1 ... active

Outcome logged for CN(C)CCCN(C(=O)c1ccc(S(=O)(=O)N2CCc3ccccc3C2)cc1)c1nc2ccc(F)cc2s1 in this assay:
active

Outcome logged for O=C(N/N=C/c1ccc(Cl)c([N+](=O)[O-])c1)c1cc(-c2ccc3c4c(cccc24)CC3)n[nH]1 in this assay:
inactive

Outcome logged for Cc1cc(C(=O)Nc2cccc(C(=O)O)c2)oc1C in this assay:
inactive

====

# pIC50 listing for each entry below
- Tested on: Rat fibroblasts (CREF)
- testName: Peg3 promoter luciferase inhibitors, potency, dose response, cell-based, HeLa, CREF/GAPDH counter-screen panel (AID 624167)
- reportedConditions: CREF/GAPDH counter-screens, run 2, dose range 1, individual replicate IC50 per panel
// scale note: pIC50 = -log10(conc_M); give the bare number

Answered examples (8):
Cc1cc(NC(c2ccc(Cl)cc2)c2ccc3cccnc3c2O)no1 (stereo unspecified) ... 4.26
CC1=CC2/C=C(\C)CCC(O)C(O)/C=C/C(=O)C23C(=O)NC(CC(C)C)C3C1C (stereo unspecified) ... 5.07
CC(C)CC(=NNC(=O)c1ccncc1)c1cc(Cl)ccc1O ... 4.91
O=C(NCCc1ccccc1)c1ccc2c(c1)OCCO2 ... 5.68
O=C(/C=C\Nc1ccc2c(c1)OCO2)c1ccccn1 ... 5.94
CN1CCN(c2ccc(-c3ccc4ccccc4n3)cc2)CC1 ... 5.75
COc1ccc(N(C(=O)CCl)C(C(=O)NC2CCCCC2)c2cccnc2)cc1 (stereo unspecified) ... 5.59
CCCn1c(C)cc(C(=O)CN2C(=O)c3ccccc3S2(=O)=O)c1C ... 5.22

Please look at the following compound next.
# input compound: CC1CCN(c2ccc(-c3cccc(NC(=O)C(F)(F)F)c3)nn2)CC1 ; wanted: its pIC50
6.08

====

- Tested on: PEG-3
- testName: Peg3 promoter luciferase inhibitors, potency, dose response, cell-based, HeLa, CREF/GAPDH counter-screen panel (AID 624167)
- reportedConditions: HeLa PEG-Prom luciferase reporter, overnight, CREF/GAPDH counter-screens, run 1, dose range 1, individual replicate IC50 per panel
# IC50 listing for each entry below
Quick note: give the figure in µM, leave out the unit.

Answered examples (8):
CN(C)c1ccc(Nc2nc(N)c3ccccc3n2)cc1 ... 2.51
O=C1OCCC1Sc1nnc(-c2ccc(Cl)cc2Cl)o1 (stereo unspecified) ... 6.82
CCCN1CCc2c(sc(NC(=O)c3ccc(S(=O)(=O)N4CCN(C(=O)OCC)CC4)cc3)c2C(N)=O)C1 ... 21.9
COc1ccc(CCNC(=O)C(=O)NCC2CCCN2S(=O)(=O)c2ccccc2)cc1OC (stereo unspecified) ... 29.8
c1ccc(-c2nc(-c3ccccn3)no2)cc1 ... 6.25
O=C(Nc1cc(S(=O)(=O)N2CCOCC2)ccc1Cl)c1cc([N+](=O)[O-])ccc1Cl ... 14.8
CN[C@H]1C[C@H]2c3[nH]c4ccc(-c5ccc(OC)cc5)cc4c3CCN2C(=O)[C@H]1[C@H](C)O ... 12.5
C[C@@H](NCCCn1cnc2c(OCc3ccccc3)ncnc21)c1cccc2ccccc12 ... 17.7

Please look at the following molecule next.
Kindly state the measured IC50 obtained for CCOc1cccc2sc(N(CCCN(C)C)C(=O)c3ccc(S(=O)(=O)N(C)Cc4ccccc4)cc3)nc12 with PEG-3.
18.6
